The entries below come with measured melting point values attached.
Counter-ions that a name gives are not always drawn.
measured_property: melting point

INSERT INTO assay_data (molecule, measured_property, assay_result) VALUES
  ('CCCCc1cc(OC[C@@H]2CCN2)cnc1Cl (as salt: hydrochloride) [Example 29]', 'melting point', '88 to 90 °C'),
  ('COc1ccc(OC[C@H]2CCN2)cn1 [Example 119]', 'melting point', '139 to 142 °C'),
  ('Fc1ncc(OCC2CCN2)cc1Cl (stereo not drawn) (as salt: tosylate) [Example 33]', 'melting point', '99 °C'),
  ('Cc1ccc(OC[C@@H]2CCN2)cn1 (as salt: hydrochloride) [Example 20, dihydrochloride]', 'melting point', '141 to 144 °C'),
  ('C=Cc1cncc(OC[C@@H]2CCN2)c1 (as salt: hydrochloride) [Example 22, dihydrochloride]', 'melting point', '88 to 90 °C'),
  ('Clc1ncc(OC[C@H]2CCN2)cc1Br (as salt: hydrochloride) [Example 18]', 'melting point', '175 °C'),
  ('C=Cc1cc(OC[C@@H]2CCN2)cnc1C (as salt: hydrochloride) [Example 35]', 'melting point', '154 to 155 °C'),
  ('Cc1cc(OC[C@@H]2CCN2)cnc1F (as salt: salt) [Example 32]', 'melting point', '104 to 108 °C'),
  ('Fc1ncc(OC[C@H]2CCN2)cc1Br (as salt: tosylate) [Example 125]', 'melting point', '238 to 240 °C');

----------
- tested_on: neuromuscular junction nicotinic acetylcholine receptor (Tetronarce californica, UniProt P02710+P02714+P02718)
- Sequence (P02714 18-506): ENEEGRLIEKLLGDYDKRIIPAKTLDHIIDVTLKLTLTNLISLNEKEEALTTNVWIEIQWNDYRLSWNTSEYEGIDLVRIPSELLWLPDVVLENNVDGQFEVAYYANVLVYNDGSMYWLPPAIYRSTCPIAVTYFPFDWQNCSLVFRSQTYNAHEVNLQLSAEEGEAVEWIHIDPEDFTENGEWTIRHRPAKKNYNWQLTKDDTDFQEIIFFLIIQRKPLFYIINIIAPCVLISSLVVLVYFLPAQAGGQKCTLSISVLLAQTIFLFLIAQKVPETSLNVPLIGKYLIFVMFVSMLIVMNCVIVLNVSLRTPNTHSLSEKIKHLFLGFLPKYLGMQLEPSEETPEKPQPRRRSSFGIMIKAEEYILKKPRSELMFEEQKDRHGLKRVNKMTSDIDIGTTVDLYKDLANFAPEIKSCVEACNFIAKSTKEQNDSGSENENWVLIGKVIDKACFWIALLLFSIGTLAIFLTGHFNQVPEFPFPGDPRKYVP
- Sequence (P02710 25-461): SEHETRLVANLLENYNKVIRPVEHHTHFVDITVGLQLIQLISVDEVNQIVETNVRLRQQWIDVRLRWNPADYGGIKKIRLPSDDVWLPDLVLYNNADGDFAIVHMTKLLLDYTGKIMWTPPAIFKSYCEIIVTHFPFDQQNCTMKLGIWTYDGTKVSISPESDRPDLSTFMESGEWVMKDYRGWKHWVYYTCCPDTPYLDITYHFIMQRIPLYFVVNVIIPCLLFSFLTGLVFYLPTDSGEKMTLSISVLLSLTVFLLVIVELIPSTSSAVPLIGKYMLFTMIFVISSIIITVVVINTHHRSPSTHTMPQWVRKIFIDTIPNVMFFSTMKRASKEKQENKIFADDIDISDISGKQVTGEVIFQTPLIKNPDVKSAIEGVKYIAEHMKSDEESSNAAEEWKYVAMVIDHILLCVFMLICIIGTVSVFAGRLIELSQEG
- Sequence (P02712 25-493, further chain): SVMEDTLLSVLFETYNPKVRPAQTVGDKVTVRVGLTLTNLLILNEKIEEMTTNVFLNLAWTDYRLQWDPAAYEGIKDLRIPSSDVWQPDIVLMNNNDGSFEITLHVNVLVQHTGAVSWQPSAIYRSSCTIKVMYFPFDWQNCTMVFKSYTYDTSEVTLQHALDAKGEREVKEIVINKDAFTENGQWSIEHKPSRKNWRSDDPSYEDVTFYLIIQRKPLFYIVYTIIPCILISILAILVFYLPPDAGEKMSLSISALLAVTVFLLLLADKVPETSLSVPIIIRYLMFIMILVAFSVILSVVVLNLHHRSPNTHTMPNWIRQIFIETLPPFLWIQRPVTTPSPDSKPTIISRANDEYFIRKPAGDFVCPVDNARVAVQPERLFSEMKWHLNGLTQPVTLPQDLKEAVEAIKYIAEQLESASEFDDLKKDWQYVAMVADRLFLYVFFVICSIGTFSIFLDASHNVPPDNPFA
- Sequence (P02718 22-522): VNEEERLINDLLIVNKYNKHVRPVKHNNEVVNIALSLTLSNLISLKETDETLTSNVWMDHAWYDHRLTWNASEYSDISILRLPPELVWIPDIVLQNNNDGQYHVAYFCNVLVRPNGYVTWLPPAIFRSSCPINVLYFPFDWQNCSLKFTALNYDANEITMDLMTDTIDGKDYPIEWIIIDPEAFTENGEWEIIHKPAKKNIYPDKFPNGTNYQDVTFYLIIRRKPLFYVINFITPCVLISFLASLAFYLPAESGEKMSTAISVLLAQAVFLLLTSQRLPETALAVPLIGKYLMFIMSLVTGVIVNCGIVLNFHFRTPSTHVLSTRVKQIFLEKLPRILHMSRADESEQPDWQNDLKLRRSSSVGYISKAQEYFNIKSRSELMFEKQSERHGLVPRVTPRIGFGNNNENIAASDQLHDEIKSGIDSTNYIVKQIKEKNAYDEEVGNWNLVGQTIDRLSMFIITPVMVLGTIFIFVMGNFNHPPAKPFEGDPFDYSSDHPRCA
- run_description: biochemical
- Type: binding, Torpedo Californica
- condition_context: read-out: Ki (nM) α-bungarotoxin
measured_property: Ki (nM)

INSERT INTO results (compound, unit_descriptor, assay_result) VALUES
  ('Cl.Cl.Clc1ccc(OC[C@@H]2CCN2)cn1 [Example 19, dihydrochloride]', 'nM', 1300);

----------
Counter-ions that a name gives are not always drawn.
measured_property: melting point

INSERT INTO assay_data (molecule, measured_property, assay_result) VALUES
  ('Clc1cc(OC[C@@H]2CCN2)cnc1Cl (as salt: hydrochloride)', 'melting point', '181 to 182 °C'),
  ('Cl.O=[N+]([O-])c1cncc(OC[C@@H]2CCN2)c1', 'melting point', '162 to 164 °C (dec.)'),
  ('CCCc1cncc(OC[C@@H]2CCN2)c1 (as salt: hydrochloride)', 'melting point', '79 to 80 °C'),
  ('Cc1ccc(OC[C@H]2CCN2)cn1 (as salt: HCl)', 'melting point', '134 to 136 °C'),
  ('CCCc1cc(OC[C@@H]2CCN2)cnc1Cl (as salt: hydrochloride)', 'melting point', '148 to 150 °C');

----------
- tested_on: peripheral ganglionic receptors (Homo sapiens, UniProt P30926+P32297)
- Construct: Cells of the IMR-32 human neuroblastoma clonal cell line (ATCC, Rockville, Md.); host or cells: IMR-32 human neuroblastoma cells
- Sequence (P32297 32-505): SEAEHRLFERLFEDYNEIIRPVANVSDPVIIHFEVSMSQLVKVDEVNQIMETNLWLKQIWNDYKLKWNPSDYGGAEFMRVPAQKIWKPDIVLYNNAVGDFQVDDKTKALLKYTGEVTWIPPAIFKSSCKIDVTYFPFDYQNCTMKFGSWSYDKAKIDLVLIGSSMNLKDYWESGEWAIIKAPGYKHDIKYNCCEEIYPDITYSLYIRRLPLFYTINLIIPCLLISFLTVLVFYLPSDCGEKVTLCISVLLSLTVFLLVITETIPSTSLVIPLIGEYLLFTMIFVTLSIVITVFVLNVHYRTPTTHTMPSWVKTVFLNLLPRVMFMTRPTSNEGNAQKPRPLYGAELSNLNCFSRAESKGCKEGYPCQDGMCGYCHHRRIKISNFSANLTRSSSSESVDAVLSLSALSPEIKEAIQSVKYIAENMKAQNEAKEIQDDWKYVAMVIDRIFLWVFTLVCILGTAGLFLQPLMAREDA
- Sequence (P30926 22-498): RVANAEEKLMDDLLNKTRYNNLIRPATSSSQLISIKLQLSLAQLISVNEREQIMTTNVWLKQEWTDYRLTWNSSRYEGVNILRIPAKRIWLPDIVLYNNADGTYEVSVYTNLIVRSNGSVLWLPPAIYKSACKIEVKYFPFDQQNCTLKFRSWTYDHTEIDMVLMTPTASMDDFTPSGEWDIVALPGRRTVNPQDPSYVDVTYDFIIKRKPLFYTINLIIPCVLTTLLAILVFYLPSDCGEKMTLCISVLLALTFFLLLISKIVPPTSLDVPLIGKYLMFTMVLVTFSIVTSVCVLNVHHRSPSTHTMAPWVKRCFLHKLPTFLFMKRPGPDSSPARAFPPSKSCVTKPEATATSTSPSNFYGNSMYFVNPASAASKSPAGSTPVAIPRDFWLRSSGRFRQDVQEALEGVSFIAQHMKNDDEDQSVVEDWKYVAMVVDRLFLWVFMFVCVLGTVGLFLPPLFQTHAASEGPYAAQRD
- run_description: 86Rb+ flux activation in IMR-32 human neuroblastoma cells
- Assay type: cell-based
- condition_context: 1 μM compound, % of maximum response to (S)-nicotine
Where a name gives a salt, the structure may show the parent alone.
measured_property: IMR-32 % maximal nicotine response at 1 μM Cmpd conc'n (%)

INSERT INTO results (molecule, unit_descriptor, assay_result) VALUES
  ('Fc1cncc(OC[C@@H]2CCN2)c1 [Example 10, dihydrochloride]', '%', 28),
  ('Clc1cc(OC[C@@H]2CCN2)cnc1Cl [Example 15, hydrochloride]', '%', 117),
  ('Fc1cncc(OC[C@H]2CCN2)c1', '%', 31),
  ('Clc1ccc(OC[C@H]2CCN2)cn1 [Example 4, hydrochloride]', '%', 97),
  ('Fc1ccc(OC[C@@H]2CCN2)cn1', '%', 103),
  ('Cl.Cl.Clc1ccc(OC[C@@H]2CCN2)cn1', '%', 173),
  ('Clc1ncc(OC[C@H]2CCN2)cc1Br [Example 18, hydrochloride]', '%', 93),
  ('Fc1ccc(OCC2CCN2)cn1 (stereo not drawn)', '%', 46),
  ('Clc1ncc(OC[C@@H]2CCN2)cc1Br [Example 17, hydrochloride]', '%', 120),
  ('Clc1cc(OC[C@H]2CCN2)cnc1Cl [Example 16, hydrochloride]', '%', 85),
  ('Cc1cncc(OC[C@H]2CCN2)c1 [Example 14, hydrochloride]', '%', 15),
  ('Cc1cncc(OC[C@@H]2CCN2)c1', '%', 27);

----------
Structures can show the parent of a compound that is named as a salt.
measured_property: melting point

INSERT INTO assay_data (compound, measured_property, assay_result) VALUES
  ('C#Cc1cc(OC[C@@H]2CCN2)cnc1Cl (as salt: hydrochloride)', 'melting point', '90 °C (dec.)'),
  ('CCc1cc(OC[C@@H]2CCN2)cnc1F (as salt: tosylate)', 'melting point', '106 to 108 °C'),
  ('Clc1ncc(OC[C@@H]2CCN2)cc1Br (as salt: hydrochloride)', 'melting point', '168 to 169 °C'),
  ('CCc1cc(OC[C@@H]2CCN2)cnc1C (as salt: hydrochloride)', 'melting point', '150 to 153 °C'),
  ('Fc1cncc(OC[C@H]2CCN2)c1 (as salt: salt)', 'melting point', '163 to 165 °C'),
  ('Brc1cncc(OC[C@@H]2CCN2)c1 (as salt: hydrochloride) [Example 12, dihydrochloride]', 'melting point', '163 to 165 °C'),
  ('Fc1cncc(OC[C@@H]2CCN2)c1 (as salt: hydrochloride) [Example 10, dihydrochloride]', 'melting point', '165 to 167 °C'),
  ('C=Cc1cc(OC[C@@H]2CCN2)cnc1Cl (as salt: hydrochloride)', 'melting point', '121 °C (dec.)'),
  ('Clc1cc(OC[C@H]2CCN2)cnc1Cl (as salt: hydrochloride)', 'melting point', '166 to 168 °C'),
  ('Fc1ccc(OC[C@@H]2CCN2)c(F)n1 (as salt: tosylate)', 'melting point', '140 to 143 °C'),
  ('CCc1cc(OC[C@@H]2CCN2)cnc1Cl (as salt: hydrochloride)', 'melting point', '102 to 104 °C');

----------
- condition_context: dog, in vivo
The entries below come with measured F* (%) efficiency of conversion values attached.
measured_property: F* (%) efficiency of conversion

INSERT INTO assay_data (compound, assay_result) VALUES
  ('COC(=O)c1ccc(C(=O)N2CC[C@@H]2COc2ccc(F)nc2)cc1 [4-MeO2CC6H4CO]', 61.2),
  ('Cc1ccc(C(=O)N2CC[C@@H]2COc2ccc(F)nc2)cc1 [Example 4-MeC6H4CO]', 43.1),
  ('O=C(c1ccccc1)N1CC[C@@H]1COc1ccc(F)nc1 [PhCO]', 27.3),
  ('O=C(c1ccc(Cl)cc1)N1CC[C@@H]1COc1ccc(F)nc1 [Example 4-ClC6H4CO]', 26.9),
  ('COc1ccc(C(=O)N2CC[C@@H]2COc2ccc(F)nc2)cc1 [Example 4-MeOC6H4CO]', 37.7),
  ('O=C(c1ccc(F)cc1)N1CC[C@@H]1COc1ccc(F)nc1 [Example 4-FC6H4CO]', 13.5),
  ('O=C(c1ccc([N+](=O)[O-])cc1)N1CC[C@@H]1COc1ccc(F)nc1 [Example 4-NO2C6H4CO]', 27.1);

----------
- tested_on: neuronal nicotinic acetylcholine receptors (Rattus norvegicus, UniProt P09483+P12390)
- Construct: crude synaptic membrane preparations from whole rat brain; from tissue; host or cells: whole rat brain, crude synaptic membranes
- Sequence (P09483 31-630): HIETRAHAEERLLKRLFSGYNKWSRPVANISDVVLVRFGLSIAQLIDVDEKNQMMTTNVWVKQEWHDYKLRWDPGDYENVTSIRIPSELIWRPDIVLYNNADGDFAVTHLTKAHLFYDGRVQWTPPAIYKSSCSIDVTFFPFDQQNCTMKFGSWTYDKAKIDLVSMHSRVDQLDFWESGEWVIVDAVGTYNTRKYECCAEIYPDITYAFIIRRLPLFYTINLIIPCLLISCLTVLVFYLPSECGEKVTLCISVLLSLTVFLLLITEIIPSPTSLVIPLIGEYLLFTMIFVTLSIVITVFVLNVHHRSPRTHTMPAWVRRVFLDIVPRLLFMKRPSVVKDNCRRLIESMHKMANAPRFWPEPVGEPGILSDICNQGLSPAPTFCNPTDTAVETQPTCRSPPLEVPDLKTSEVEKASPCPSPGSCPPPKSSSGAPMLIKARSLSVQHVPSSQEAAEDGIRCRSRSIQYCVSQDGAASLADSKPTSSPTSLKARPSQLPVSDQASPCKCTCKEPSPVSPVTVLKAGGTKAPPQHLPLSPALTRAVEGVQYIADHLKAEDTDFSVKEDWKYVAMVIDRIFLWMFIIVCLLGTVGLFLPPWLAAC
- Sequence (P12390 25-500): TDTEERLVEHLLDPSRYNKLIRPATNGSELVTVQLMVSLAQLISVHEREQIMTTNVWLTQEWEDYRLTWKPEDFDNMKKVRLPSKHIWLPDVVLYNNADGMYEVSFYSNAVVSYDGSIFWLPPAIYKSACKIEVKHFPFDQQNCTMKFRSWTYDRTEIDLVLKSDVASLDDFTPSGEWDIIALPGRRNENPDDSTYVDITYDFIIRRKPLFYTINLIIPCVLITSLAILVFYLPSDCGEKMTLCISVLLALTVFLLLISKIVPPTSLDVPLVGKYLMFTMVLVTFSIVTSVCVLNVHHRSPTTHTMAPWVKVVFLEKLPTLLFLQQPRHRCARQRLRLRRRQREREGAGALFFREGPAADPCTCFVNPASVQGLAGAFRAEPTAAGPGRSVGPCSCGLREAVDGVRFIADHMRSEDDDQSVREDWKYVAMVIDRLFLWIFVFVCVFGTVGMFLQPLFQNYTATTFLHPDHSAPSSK
- run_description: [3H]-cytisine binding to neuronal nicotinic acetylcholine receptors, whole rat brain membranes
- condition_context: [3H]-cytisine 1.25 nM, whole rat brain membranes; read-out: [3H] CYT Ki
Where a name gives a salt, the structure may show the parent alone.
Criterion: Ki strictly under 0.07 nM. Met: 1. Not met: -1.

INSERT INTO results (molecule, class_label) VALUES
  ('Brc1ccc(OC[C@H]2CCN2)cn1 [Example 128, tosylate]', -1),
  ('Fc1ccc(OC[C@@H]2CCN2)c(F)n1', -1),
  ('Brc1cncc(OC[C@@H]2CCN2)c1 [Example 12, dihydrochloride]', -1),
  ('Cc1ccc(OC[C@@H]2CCN2)cn1 [Example 20, dihydrochloride]', 1),
  ('Fc1cncc(OC[C@H]2CCN2)c1', -1),
  ('C=CCc1cncc(OC[C@@H]2CCN2)c1 [Example 130, hydrochloride]', 1);

----------
- tested_on: neuronal nicotinic acetylcholine receptors (Rattus norvegicus, UniProt P09483+P12390)
- Construct: crude synaptic membrane preparations from whole rat brain; from tissue; host or cells: whole rat brain, crude synaptic membranes
- run_description: [3H]-cytisine binding to neuronal nicotinic acetylcholine receptors, whole rat brain membranes
Where a name gives a salt, the structure may show the parent alone.
measured_property: Ki (nM)

INSERT INTO measurements (compound, measured_property, assay_result) VALUES
  ('Fc1ncc(OC[C@H]2CCN2)cc1Br', 'Ki', 0.04),
  ('Cc1cc(OC[C@H]2CCN2)cnc1Cl', 'Ki', 0.06),
  ('c1cncc(OC[C@@H]2CCN2)c1 [Example 7, dihydrochloride]', 'Ki', 0.04),
  ('Cl.Cl.c1cncc(OC[C@H]2CCN2)c1 [Example 6, dihydrochloride]', 'Ki', 0.04);
